Hey, just so you know, these numbers are from patent US20170044230A1.

system_under_test: T1, human GHS-R1a receptor (growth hormone secretagogue receptor 1a) (human, UniProt Q92847 1-366)
T1 construct: whole, on cells; Functional assays: HEK-293T cells transiently transfected with human GHS-R1a; also called ghrelin receptor
assay_remarks: competitive displacement of 125I-ghrelin, membranes of HEK293T cells with transfected human GHS-R1a
Experimental: Competitive binding studies were performed according to the principles of Motulsky and Neubig (Motulsky & Neubig, 2002). Isolated plasma membranes from the HEK293T cells with transfected human GHS-R1a receptor (Multispan, Hayward, Calif., USA) were used. […] Bound radioactivity was determined by gamma counting (Wizard 1470 Automatic Gamma Counter; PerkinElmer Life and Analytical Sciences, Waltham, Mass.).
Reported pKi is given for each of the following binders.
Interpret pKi as the negative base-10 log of the concentration measured in mol/L.

Reference set, count: 3
Prompt: What value of pKi has been reported for the following binder? GSXFLSPEHQKAQQRKESKKPPAKLQPR (diaminopropionic acid (Dpr) bearing octanoyl at position 3, Synthetic ghrelin analog) [Dpr^3ghrelin]
Response: 9.17

Prompt: Quick one: pKi for XSXFLSPEHQKAQQRKESKKPPAKLQPR (sarcosine (Sar) at position 1; diaminopropionic acid N-decanoyl (Dpr-N-dec) at position 3, Synthetic ghrelin analog) [ghrelin analog no. 1, (Sar)S(Dpr-N-dec)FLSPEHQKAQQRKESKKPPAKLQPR] ?
Response: 9.20

Prompt: Looking for the measured pKi of XSXXLSPEHQKAQQRKESKKPPAKLQPR (sarcosine (Sar) at position 1; diaminopropionic acid N-octanoyl (Dpr-N-oct) at position 3; cyclohexylalanine (Cha) at position 4; Lys 24 N-palmitoyl (K(N-palm)), Synthetic ghrelin analog) [ghrelin analog no. 8, (Sar)S(Dpr-N-oct)(Cha)LSPEHQKAQQRKESKKPPAK(N-palm)LQPR] , can you help?
Response: 7.68

New cases:
Prompt: Suppose we examine the binder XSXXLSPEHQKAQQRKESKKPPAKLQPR (sarcosine (Sar) at position 1; diaminopropionic acid N-octanoyl (Dpr-N-oct) at position 3; tertbutylalanine (tBu) at position 4, Synthetic ghrelin analog) [ghrelin analog no. 10, (Sar)S(Dpr-N-oct)(tBu)LSPEHQKAQQRKESKKPPAKLQPR] ; what pKi value has been reported?
Response: 8.33

Prompt: Returns the measured pKi for the input binder. Input: XSXFLSPEHQKAQQRKESKKPPAKLQPR (sarcosine (Sar) at position 1; diaminopropionic acid N-myristoyl (Dpr-N-myr) at position 3, Synthetic ghrelin analog; also called analog 2) [ghrelin analog no. 2, (Sar)S(Dpr-N-myr)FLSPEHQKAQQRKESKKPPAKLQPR]
Response: 8.68
